Every entry's value here was drawn from PubChem BioAssay AID588342.

# Target system: Luciferin 4-monooxygenase (Photinus pyralis)
# Run description: qHTS profiling assay for firefly luciferase inhibitor/activator using purifed enzyme and Km concentrations of substrates (counterscreen for miR-21 project); also: nearly all actives have a fitted effect of over 55% in size
# Particulars: purified FLuc, luminescence inhibition; series mostly up to 57.5 µM
In all, about 360,000 compounds went through this assay and about 25,000 (6.9%) were called active. Inconclusive results (about 9%) are left out. Calls follow the shape of the dose curve; as a rule, active = well fitted inhibition curve with a large enough effect; inconclusive = small, poorly fitted or top-dose-only effect; inactive = flat fitted curve, though single readings scatter. For the sample, actives were picked, then their nearest neighbours and some compounds at random.
Would you mind answering with one of these outcomes? active, inactive

Task item: Call for entry Cn1c(=O)c(C(=O)O)nn(-c2ccccc2)c1=O :
Reply: inactive

Task item: Call for entry COc1ccc(CC(=O)Nc2ccc(-c3nc4ccccc4s3)c(C)c2)cc1 :
Reply: inactive

Task item: Call for entry COc1ccc(-c2onc(C)c2C)cc1S(=O)(=O)NCCc1ccccc1 :
Reply: inactive

Task item: Call for entry C=C1CCC(N(O)c2cc(C)on2)C(=C)CCC2C1CC2(C)C (stereo unspecified) :
Reply: inactive

Task item: Call for entry O=C(c1cn(-c2ccccc2)nc1-c1cccnc1)N1CCN(S(=O)(=O)c2ccccc2F)CC1 :
Reply: inactive

Task item: Call for entry COc1ccc(NC(=O)CSc2nnc(C3CC3)n2C)cc1S(=O)(=O)N1CCCCC1 :
Reply: inactive

Task item: Call for entry Cc1c(NC(=O)C(C)(C)C)cccc1-c1nc2ccccc2s1 :
Reply: active

Task item: Call for entry CCCCc1nn2c(=O)cc(COC(=O)c3ccccc3NC(=O)C(C)(C)C)nc2s1 :
Reply: inactive

Task item: Call for entry COc1ccc2[nH]c(=S)cc(C)c2c1 :
Reply: inactive

Task item: Call for entry Cc1cc(Cl)ccc1C(=O)C1CCCN(C(=O)c2nonc2C)C1 (stereo unspecified) :
Reply: inactive

Task item: Call for entry COc1ccccc1N1CCN(C(=O)c2cn(-c3ccccc3)nc2-c2cccnc2)CC1 :
Reply: active
